Recorded values, source the supplement of paper PMC10567573.

As shown below, each of these variants has a reported protein stability index value.
B1: ZNF263 (parent)
chain: QPKKLHLCPLCGKNFSNNSNLIRH

Variants of: B1
ASSAY: protein stability index of a GFP-peptide fusion (GPS, HEK-293T) (PSI 1-6); higher = more stable;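 note: lentivirally expressed fusions sorted by FACS into six bins by GFP to DsRed ratio, PSI derived from sequencing read proportions per bin multiplied by bin number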
EXPERIMENTAL_SETUP: c terminus: a fixed tail appended

Use the examples below as a reference point.
• N20D = 4
• N18Q = 3.17
• N17T = 2.91
• L5H = 2.64
• L5C = 2.02

Could you now consider this next variant?
Quick check: protein stability index of I22K ?
2.33
